Listed below: melting point values for each entry.

Below: 3 compounds and their reported melting point.
1) CC(=O)Nc1cc2c(cc1[N+](=O)[O-])N(C(C)=O)CCO2 | 199 to 202 °C
2) COc1n[nH]cc1-c1ccccc1 | 150 °C
3) C=C(C)C(=O)OCc1c(Br)c(Br)c(Br)c(Br)c1COC(=O)C(=C)C | 64 to 66 °C

Task: Return reported melting point; argument: C=C(C)c1cc(CC)n(-c2ccc([N+](=O)[O-])cc2)n1
Output: 61 to 63 °C

Task: Next compound: COc1ccccc1Oc1c(N=[N+]=[N-])nc(-c2ncccn2)nc1C(=O)OCCO
Output: 133 to 134 °C

Task: # repeat for COC(=O)CCCC#Cc1nc(C(F)(F)F)ccc1N
Output: 49 °C

Task: Then CCOc1nn(Cc2ccccc2OCc2nc(-c3ccccc3)oc2C)cc1CCC(=O)O ?
Output: 127 to 128 °C

Task: # repeat for O=C(Nc1ccc2ncnc(Nc3cc(Cl)c(Cl)cc3F)c2c1)C(Cl)Cl
Output: > 300 °C

Task: Next: COC(=O)C(=O)c1cc(OC)c(O)c([N+](=O)[O-])c1
Output: 155 to 157 °C

Task: Now the same for CCCCCCCCCCCCCCCCCCOC(=O)CCc1cc(C(C)(C)C)c(OP2Nc3ccccc3O2)c(C(C)(C)C)c1 (stereo unspecified)
Output: 58 to 65 °C

Task: Try this compound too: CCN(CC)C(=O)CCCC1CCN(Cc2cnc3cc(NC(=O)c4ccc(-c5ccc(F)cc5)cc4)c(C)cc3c2)CC1
Output: 181 °C

Task: What do you get for Cc1cc(C)c2c(c1)Cc1ccccc1S2(=O)=O ?
Output: 103 to 105 °C

Task: Quick one: Cc1ccc(Br)c(S(=O)O)c1
Output: 120 to 122 °C

Task: Next compound: Fc1cccc(Cl)c1[C@@H]1C[C@H](c2ccc(Cl)cc2)Nc2ncnn21 (relative stereo)
Output: 227 to 228 °C

Task: Queued: CC1=C(C(=O)O)CCc2ccccc21
Output: 127 °C

Task: Same read-out for CCOC(=O)CCc1cc(O)ccc1-c1ccc(-c2cccc(C)c2)c(CO)c1 ?
Output: 57 to 59 °C

Task: Also O=C1C/C(=C\c2ccccc2[N+](=O)[O-])C(=O)N1 ?
Output: 148 °C

Task: How about CC1CC(=O)c2c(ccc(F)c2Cl)N1 (single isomer, unassigned; (-)) ?
Output: 117 to 119 °C

Task: Same thing, different compound: Cn1c2ccccc2c(=O)c2ccc(Cl)n21
Output: 88.5 to 90.5 °C

Task: Now the same for COc1cc(O)ccc1-c1nc(C)c(-c2cccnc2)[nH]1
Output: 237 to 240 °C

Task: Then CS(=O)(=O)c1cnc(Cl)c(I)c1 ?
Output: 178 to 180 °C

These entries and their values trace back to a melting point compilation (Tetko et al.; mined from patent text by program, amines drawn as free bases though some values may be those of a salt).
